Test: In vivo pharmacokinetics, IV and oral gavage
Parameters: species or system male Sprague-Dawley rats
Conditions: male, Sprague-Dawley, plasma; rat, IV 2 mg/kg; read-out: Vss
Experimental: In vivo pharmacokinetic parameters were determined by measuring systemic plasma exposure in male Sprague-Dawley rats (Charles River Laboratories or Taconic, Oxnard, Calif.) by intravenous administration (N=3 fed rats: 2 mg/kg tail vein injection in DMSO) and oral gavage (N=3 fasted rats: 5 mg/kg in 1% Tween 80-2% HPMC-97% deionized water-pH 2.0 vehicle) (Comparative Example 18′ was only dosed IV and at 0.5 mg/kg). […]
Counter-ions that a name gives are not always drawn.
readout_name: log10(Vd) (log10 of the value in L/kg)
# log10 transformed; quantity=Vd; unit=L/kg

compound: N[C@H](CNc1ncc(-c2ccc3cnccc3c2)s1)CN1CCC(C(F)(F)F)CC1 [Comparative Example 25′, reference compound]
log10(Vd): 0.94
//
compound: N[C@H](CNc1ncc(-c2ccc3cnc(F)cc3c2)s1)CN1CCC(C(F)(F)F)CC1 [Example 25]
log10(Vd): 0.99
//
compound: N[C@H](CNc1ncc(-c2ccc3cnccc3c2)s1)Cc1ccc(Cl)c(F)c1 [44′, reference compound]
log10(Vd): -0.12

Give log10(Vd) for all compounds that follow.
1. N[C@H](CCc1ncc(-c2ccc3cnccc3c2)s1)[C@@H](O)c1ccc(C(F)(F)F)cc1 [36′, reference compound]
2. C[C@@H](c1ccc(C(F)(F)F)cc1)[C@H](N)CNc1ncc(-c2ccc3cnc(F)cc3c2)s1 [Example 10]
3. N[C@H](CCc1ncc(-c2ccc3cnc(F)cc3c2)s1)[C@@H](O)c1ccc(C(F)(F)F)cc1 [Example 36, trifluoroacetate]

Return:
1: 1.12; 2: 0.86; 3: 1.16

Give log10(Vd) for all compounds that follow.
1. N[C@H](CNc1ncc(-c2ccc3cnc(F)cc3c2)s1)Cc1ccc(Cl)c(F)c1 [Example 44]
2. N[C@H](CNc1ncc(-c2ccc3cnccc3c2)s1)[C@@H](CO)c1ccc(C(F)(F)F)cc1 [33′, reference compound]

Return:
1.06
0.62

---

assay: In vivo pharmacokinetics, IV and oral gavage; design: species or system male Sprague-Dawley rats; details: male, Sprague-Dawley, plasma; rat, IV 2 mg/kg; read-out: IV AUClast
Where a name gives a salt, the structure may show the parent alone.
readout_name: AUC(0-t)
# output: numeric value plus its unit

Worked examples follow.
compound: N[C@H](CNc1ncc(-c2ccc3cnccc3c2)s1)Cc1ccc(C(F)(F)F)nc1 [2′, reference compound]
AUC(0-t): 870 ng·h/mL
//
compound: COCc1nc(NC[C@@H](N)Cc2ccc(C(F)(F)F)cc2)sc1-c1ccc2cnccc2c1 [24′, reference compound]
AUC(0-t): 369 ng·h/mL

Give AUC(0-t) for all compounds that follow.
1. N[C@H](CNc1ncc(-c2ccc3cnccc3c2)s1)CN1CCC(C(F)(F)F)CC1 [Comparative Example 25′, reference compound]
2. CC(F)(F)c1ccc([C@H](O)[C@H](N)CNc2ncc(-c3ccc4cnc(F)cc4c3)s2)cc1 [Example 38, trifluoroacetate]
3. N[C@H](CNc1ncc(-c2ccc3cnccc3c2)s1)Cc1ccc(C(F)(F)F)cc1 [4′, reference compound]
4. N[C@H](CCc1ncc(-c2ccc3cnccc3c2)s1)[C@@H](O)c1ccc(C(F)(F)F)cc1 [36′, reference compound]
5. N[C@H](CNc1ncc(-c2ccc3cnc(F)cc3c2)s1)Cc1ccc(C(F)(F)F)nc1

Return:
["359 ng·h/mL", "3010 ng·h/mL", "651 ng·h/mL", "221 ng·h/mL", "2370 ng·h/mL"]
